- experimental_system: hM3Dq (Homo sapiens, UniProt P20309, A239G/Y149C)
- Sequence (P20309 whole entry Y149C/A239G): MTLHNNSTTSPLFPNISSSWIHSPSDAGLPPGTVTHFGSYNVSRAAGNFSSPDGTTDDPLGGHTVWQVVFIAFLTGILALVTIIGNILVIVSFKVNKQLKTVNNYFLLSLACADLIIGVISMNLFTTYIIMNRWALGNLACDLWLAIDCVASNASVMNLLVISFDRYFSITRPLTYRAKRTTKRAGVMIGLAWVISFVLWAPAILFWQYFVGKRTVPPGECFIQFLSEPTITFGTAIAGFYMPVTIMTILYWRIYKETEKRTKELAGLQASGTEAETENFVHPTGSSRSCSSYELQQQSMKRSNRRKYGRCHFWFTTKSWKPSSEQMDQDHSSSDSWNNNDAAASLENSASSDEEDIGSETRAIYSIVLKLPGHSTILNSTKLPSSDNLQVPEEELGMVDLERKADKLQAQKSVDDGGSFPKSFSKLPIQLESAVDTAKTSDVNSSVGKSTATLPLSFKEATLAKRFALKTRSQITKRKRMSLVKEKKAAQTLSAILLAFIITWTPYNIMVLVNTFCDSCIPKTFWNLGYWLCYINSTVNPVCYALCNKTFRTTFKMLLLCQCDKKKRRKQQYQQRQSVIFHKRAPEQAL
- assay_info: Calcium accumulation assay (GCaMP6f) in HEK293 cells with hM3Dq
- measurement_context: read-out: EC50 value for hM3Dq, mean; calcium accumulation, fluorescence
pEC50: −log10 of the molar value.
readout_label: pEC50

molecule="C[N+]1([O-])CCN(C2=Nc3cc(Cl)ccc3Nc3ccccc32)CC1 [CNO, clozapine n-oxide, reference compound]" endpoint_value=7.95

====

EC50: recorded values
- experimental_system: hM3Dq (Homo sapiens, UniProt P20309, A239G/Y149C)
- assay_info: Calcium accumulation assay (GCaMP6f) in HEK293 cells with hM3Dq
readout_label: EC50 (nM)

compound=CCN1CCN(C2=Nc3cc(Cl)ccc3Nc3c(F)cccc32)CC1 measure_unit=nM endpoint_value=2.64
compound="c1ccc2c(c1)N=C(N1CCNCC1)c1ccccc1N2 [Compound 21, reference compound]" measure_unit=nM endpoint_value=1.66
compound="[2H]C([2H])(C)N1CCN(C2=Nc3cc(Cl)ccc3Nc3ccccc32)CC1 [Compound 13, reference compound]" measure_unit=nM endpoint_value=1.43
compound=CCN1CCN(C2=Nc3cc(Cl)ccc3Nc3cccc(F)c32)CC1 measure_unit=nM endpoint_value=5.15

====

- experimental_system: hM4Di (Homo sapiens, UniProt P08173, A203G/Y113C)
- Sequence (P08173 1-479 Y113C/A203G): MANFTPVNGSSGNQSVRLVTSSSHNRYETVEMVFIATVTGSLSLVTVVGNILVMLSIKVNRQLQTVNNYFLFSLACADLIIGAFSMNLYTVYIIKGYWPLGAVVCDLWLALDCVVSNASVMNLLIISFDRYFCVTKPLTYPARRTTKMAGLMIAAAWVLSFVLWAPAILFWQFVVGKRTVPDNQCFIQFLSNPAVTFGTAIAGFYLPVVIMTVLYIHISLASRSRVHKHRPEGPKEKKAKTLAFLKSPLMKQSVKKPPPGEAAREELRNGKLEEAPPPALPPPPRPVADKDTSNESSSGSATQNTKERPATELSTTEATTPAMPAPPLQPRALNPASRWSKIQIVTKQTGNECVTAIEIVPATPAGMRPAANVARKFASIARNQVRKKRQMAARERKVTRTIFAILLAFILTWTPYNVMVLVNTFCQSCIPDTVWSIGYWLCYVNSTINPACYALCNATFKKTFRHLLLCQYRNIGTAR
- assay_info: Radioligand binding assay, [3H]clozapine competition, hM4Di membranes
- measurement_context: HEK-293 membranes, 2.5 nM [3H]clozapine, Cheng-Prusoff
- Experimental: HEK-293 cells were transfected with 5 μg/dish of pAAV plasmids encoding for hM3Dq (available from Addgene, Cambridge, Mass., plasmid #89149), hM4Di (available from Addgene, Cambridge, Mass., plasmid #89150) or a control vector and harvested 48 hours after transfection. […] The protein was quantified by the bicinchoninic acid method. […] Competition curves were fitted to a one binding site model and Ki values were calculated using the Cheng-Prusoff equation.
readout_label: Ki (nM)

compound="CCN1CCN(C2=Nc3cc(F)ccc3Nc3ccccc32)CC1 [Compound I(f)]" endpoint_value=12.9
compound="CCN1CCN(C2=Nc3ccccc3Nc3cc(F)ccc32)CC1 [Compound I(d)]" endpoint_value=149
compound="CCN1CCN(C2=Nc3cc(Cl)ccc3Nc3cc(F)ccc32)CC1 [Compound I(c)]" endpoint_value=51.3
